Molecular target: Adenosine receptor A3 (Homo sapiens) (UniProt P0DMS8)
Sequence (whole entry): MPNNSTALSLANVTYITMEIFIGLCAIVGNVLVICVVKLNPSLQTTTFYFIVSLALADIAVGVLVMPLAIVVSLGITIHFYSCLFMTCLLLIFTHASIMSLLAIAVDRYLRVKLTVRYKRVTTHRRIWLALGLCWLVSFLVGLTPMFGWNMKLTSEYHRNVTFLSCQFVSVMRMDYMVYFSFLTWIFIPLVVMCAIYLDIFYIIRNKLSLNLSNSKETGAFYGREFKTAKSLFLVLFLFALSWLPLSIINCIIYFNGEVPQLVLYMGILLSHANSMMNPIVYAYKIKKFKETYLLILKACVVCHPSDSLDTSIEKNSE
Assay: Displacement of […] from human A3AR expressed in HEK cells at 10 uM relative to control
Assay type: cell-based
Conditions: filed as agonist
Binary classification by Activity, with 60% as an inclusive lower bound for T; all other cases are F.

Consider the following illustrative entries.
compound=NC[C@H]1O[C@@H](n2cnc3c(N[C@H](C4CCC4)C4CC4)nc(I)nc32)[C@H](O)[C@@H]1O category=F
compound=COc1ccc(SC[C@@]23C[C@@H]2[C@@H](n2cnc4c(NC(C5CCCC5)C5CCCC5)nc(Cl)nc42)[C@H](O)[C@@H]3O)cc1OC category=T
compound="COCCN(CCOC)C(=O)[C@]12C[C@H]1[C@H](n1cnc3c(N)nc(Cl)nc31)[C@@H](O)[C@H]2O (single isomer, unassigned)" category=F
compound=CCOC(=O)[C@@]12C[C@@H]1[C@@H](n1cnc3c(N[C@H](C4CCC4)C4CC4)nc(I)nc31)[C@H](O)[C@@H]2O category=T
compound=CSC[C@@]12C[C@@H]1[C@@H](n1cnc3c(NC(C4CC4)C4CC4)nc(I)nc31)[C@H](O)[C@@H]2O category=T

Pending compound:
Form field: Activity at least 60%? Entry: OC[C@@]12C[C@@H]1[C@@H](n1cnc3c(N[C@@H](C4CCC4)C4CC4)nc(I)nc31)[C@H](O)[C@@H]2O
F
